Kindly supply the reported Bliss excess values for the records listed here.
Tested on: UACC-257 (Melanoma)
Test: Bliss excess, mean over the matrix (fraction); higher = more synergy
// keep it numeric: no unit symbol after the value

Request: Quickly give me recorded Bliss excess for CC1(C)CCC(CN2CCN(c3ccc(C(=O)NS(=O)(=O)c4ccc(NCC5CCOCC5)c([N+](=O)[O-])c4)c(Oc4cnc5[nH]ccc5c4)c3)CC2)=C(c2ccc(Cl)cc2)C1 [Venetoclax] + C[C@@H]1COCCN1C2=NC(=NC(=C2)C3(CC3)[S@](=N)(=O)C)C4=C5C=CNC5=NC=C4 [AZD6738] (first compound max 1 µM, 7x7, partner max 10 µM)
Response: -0.0092

Request: For the compound CN(CCO)CC[C@H](CSc1ccccc1)Nc1ccc(S(=O)(=O)NC(=O)c2ccc(N3CCC([C@@H](O)c4ccccc4-c4ccc(Cl)cc4)CC3)cc2)cc1S(=O)(=O)C(F)(F)F [AZD4320] + C[C@@H](Nc1cc(F)cc(F)c1)c1cc(C(=O)N(C)C)cc2c(=O)cc(N3CCOCC3)oc12 [AZD8186] (first compound max 1 µM, 7x7, partner max 3 µM) , give its measured Bliss excess value.
Response: 0.0488

Request: Query Bliss excess for CN(CCO)CC[C@H](CSc1ccccc1)Nc1ccc(S(=O)(=O)NC(=O)c2ccc(N3CCC([C@@H](O)c4ccccc4-c4ccc(Cl)cc4)CC3)cc2)cc1S(=O)(=O)C(F)(F)F [AZD4320] + C1CN(CCC1(C(=O)N[C@@H](CCO)C2=CC=C(C=C2)Cl)N)C3=NC=NC4=C3C=CN4 [Capivasertib] (first compound max 1 µM, 7x7, partner max 3 µM)
Response: -0.0405

Request: Supply reported Bliss excess belonging to this compound: C[C@@H](c1ccc2nccn2c1)n1nnc2ncc(-c3cnn(C)c3)nc21 [Savolitinib] + CN(CC[C@H](CSC1=CC=CC=C1)NC2=C(C=C(C=C2)S(=O)(=O)NC(=O)C3=CC=C(C=C3)N4CCC(CC4)[C@H](C5=CC=CC=C5C6=CC=C(C=C6)Cl)O)S(=O)(=O)C(F)(F)F)CCO [AZD4320] (first compound max 1 µM, 7x7, partner max 1 µM)
Response: -0.0529

Request: Find the measured Bliss excess of Cc1c2c(nn1C)CSCc1cc(n(C)n1)CSc1cc(c3ccccc3c1)OCCCc1c(C(=O)O)n(C)c3c-2c(Cl)ccc13 [AZD5991] + Cc1cc2ncnn2cc1Nc1ncc2c(n1)n(C1CCOCC1)c(=O)n2C [AZD7648] (first compound max 1 µM, 7x7, partner max 10 µM) and report it.
Response: -0.0242

Request: For C=CCn1c(=O)c2cnc(Nc3ccc(N4CCN(C)CC4)cc3)nc2n1-c1cccc(C(C)(C)O)n1 [AZD1775] + O=C(c1cc(Cc2n[nH]c(=O)c3ccccc23)ccc1F)N1CCN(C(=O)C2CC2)CC1 [Olaparib] (first compound max 1 µM, partner max 10 µM) , write its Bliss excess.
Response: -0.0197

Request: Please give measured Bliss excess of the following entry: C=CCn1c(=O)c2cnc(Nc3ccc(N4CCN(C)CC4)cc3)nc2n1-c1cccc(C(C)(C)O)n1 [AZD1775] + C[C@@H]1COCCN1C2=NC(=NC(=C2)C3(CC3)[S@](=N)(=O)C)C4=C5C=CNC5=NC=C4 [AZD6738] (first compound max 1 µM, partner max 10 µM)
Response: 0.0398

====

Answer each item with its documented Bliss excess.
Tested on: SNU-C2B (Colorectal Carcinoma)
Experiment: Bliss excess, mean over the matrix (fraction); higher = more synergy
No unit in the answer, only the number.

Request: Give Bliss excess for the following compound: CC1(C)CCC(CN2CCN(c3ccc(C(=O)NS(=O)(=O)c4ccc(NCC5CCOCC5)c([N+](=O)[O-])c4)c(Oc4cnc5[nH]ccc5c4)c3)CC2)=C(c2ccc(Cl)cc2)C1 [Venetoclax] + COc1cc(Nc2ncc3c(n2)-c2ccc(Cl)cc2C(c2c(F)cccc2OC)=NC3)ccc1C(=O)O [Alisertib] (first compound max 1 µM, 7x7, partner max 10 µM)
Response: 0.0168

Request: # return recorded Bliss excess for input C=CCn1c(=O)c2cnc(Nc3ccc(N4CCN(C)CC4)cc3)nc2n1-c1cccc(C(C)(C)O)n1 [AZD1775] + O=C(c1cc(Cc2n[nH]c(=O)c3ccccc23)ccc1F)N1CCN(C(=O)C2CC2)CC1 [Olaparib] (first compound max 1 µM, partner max 10 µM)
Response: 0.0056

Request: Give Bliss excess for CC1(C)CCC(CN2CCN(c3ccc(C(=O)NS(=O)(=O)c4ccc(NCC5CCOCC5)c([N+](=O)[O-])c4)c(Oc4cnc5[nH]ccc5c4)c3)CC2)=C(c2ccc(Cl)cc2)C1 [Venetoclax] + CCN(CCO)CCCOc1ccc2c(Nc3cc(CC(=O)Nc4cccc(F)c4)[nH]n3)ncnc2c1 [AZD2811] (first compound max 1 µM, 7x7, partner max 1 µM)
Response: 0.0098

Request: Supply measured Bliss excess of Cc1nc(Nc2ncc(C(=O)Nc3c(C)cccc3Cl)s2)cc(N2CCN(CCO)CC2)n1 [Dasatinib] + CC(=O)Nc1cccc(-n2c(=O)n(C3CC3)c(=O)c3c(Nc4ccc(I)cc4F)n(C)c(=O)c(C)c32)c1 [Trametinib] (first compound max 2 µM, 7x7, partner max 1 µM) in your reply.
Response: -0.0275

Request: Name the recorded Bliss excess of the compound listed here: Cn1cnc2c(F)c(Nc3ccc(Br)cc3Cl)c(C(=O)NOCCO)cc21 [Selumetinib] + CCN(CCO)CCCOc1ccc2c(Nc3cc(CC(=O)Nc4cccc(F)c4)[nH]n3)ncnc2c1 [AZD2811] (first compound max 10 µM, 7x7, partner max 1 µM)
Response: 0.0193

Request: For the compound Cc1cc2ncnn2cc1Nc1ncc2c(n1)n(C1CCOCC1)c(=O)n2C [AZD7648] + C=CCn1c(=O)c2cnc(Nc3ccc(N4CCN(C)CC4)cc3)nc2n1-c1cccc(C(C)(C)O)n1 [AZD1775] (first compound max 10 µM, partner max 1 µM) , give its reported Bliss excess.
Response: -0.0404

====

Tested on: MM1S (Plasma Cell Myeloma)
Assay: combination Emax (second highest fraction inhibited in the dose matrix, 72 h); higher = more inhibition; extreme values may be limits of the assay
quantity-kind: combination Emax

Request: Give combination Emax for C=CCn1c(=O)c2cnc(Nc3ccc(N4CCN(C)CC4)cc3)nc2n1-c1cccc(C(C)(C)O)n1 [AZD1775] + O=C(c1cc(Cc2n[nH]c(=O)c3ccccc23)ccc1F)N1CCN(C(=O)C2CC2)CC1 [Olaparib] (first compound max 1 µM, partner max 10 µM)
Response: 0.779

Request: Tell me combination Emax reported for NC1(C(=O)N[C@@H](CCO)c2ccc(Cl)cc2)CCN(c2ncnc3[nH]ccc23)CC1 [Capivasertib] + Cn1cnc2c(F)c(Nc3ccc(Br)cc3Cl)c(C(=O)NOCCO)cc21 [Selumetinib] (first compound max 10 µM, 7x7, partner max 10 µM)
Response: 1

Request: Find the measured combination Emax of CCN(CCO)CCCOc1ccc2c(Nc3cc(CC(=O)Nc4cccc(F)c4)[nH]n3)ncnc2c1 [AZD2811] + C[C@@H]1COCCN1C2=NC(=NC(=C2)C3(CC3)[S@](=N)(=O)C)C4=C5C=CNC5=NC=C4 [AZD6738] (first compound max 1 µM, 7x7, partner max 10 µM) and report it.
Response: 0.646

Request: Quote combination Emax reported for NC1(C(=O)N[C@@H](CCO)c2ccc(Cl)cc2)CCN(c2ncnc3[nH]ccc23)CC1 [Capivasertib] + C[C@@H]1COCCN1C2=NC(=NC(=C2)C3(CC3)[S@](=N)(=O)C)C4=C5C=CNC5=NC=C4 [AZD6738] (first compound max 10 µM, 7x7, partner max 10 µM) please.
Response: 0.99

Request: Determine its reported combination Emax: CN(CCO)CC[C@H](CSc1ccccc1)Nc1ccc(S(=O)(=O)NC(=O)c2ccc(N3CCC([C@@H](O)c4ccccc4-c4ccc(Cl)cc4)CC3)cc2)cc1S(=O)(=O)C(F)(F)F [AZD4320] + C[C@@H](Nc1cc(F)cc(F)c1)c1cc(C(=O)N(C)C)cc2c(=O)cc(N3CCOCC3)oc12 [AZD8186] (first compound max 1 µM, 7x7, partner max 3 µM)
Response: 0.988

Request: Identify the reported combination Emax for the following entry. CC1(C)CCC(CN2CCN(c3ccc(C(=O)NS(=O)(=O)c4ccc(NCC5CCOCC5)c([N+](=O)[O-])c4)c(Oc4cnc5[nH]ccc5c4)c3)CC2)=C(c2ccc(Cl)cc2)C1 [Venetoclax] + C1CN(CCC1(C(=O)N[C@@H](CCO)C2=CC=C(C=C2)Cl)N)C3=NC=NC4=C3C=CN4 [Capivasertib] (first compound max 1 µM, 7x7, partner max 3 µM)
Response: 0.978

Request: Report combination Emax, nothing else, for this compound: CC1(C)CCC(CN2CCN(c3ccc(C(=O)NS(=O)(=O)c4ccc(NCC5CCOCC5)c([N+](=O)[O-])c4)c(Oc4cnc5[nH]ccc5c4)c3)CC2)=C(c2ccc(Cl)cc2)C1 [Venetoclax] + Cc1cc2ncnn2cc1Nc1ncc2c(n1)n(C1CCOCC1)c(=O)n2C [AZD7648] (first compound max 1 µM, 7x7, partner max 10 µM)
Response: 0.229

Request: Given Cn1cnc2c(F)c(Nc3ccc(Br)cc3Cl)c(C(=O)NOCCO)cc21 [Selumetinib] + C[C@@H]1COCCN1C2=NC(=NC(=C2)C3(CC3)[S@](=N)(=O)C)C4=C5C=CNC5=NC=C4 [AZD6738] (first compound max 10 µM, 7x7, partner max 10 µM) , respond with its combination Emax.
Response: 0.475

Request: Return reported combination Emax. Input compound: COc1nnc2ccc(N3CCC(c4ccc(OCCN5CCN(C)C(=O)[C@H]5C)cc4)CC3)nn12 [AZD5153] + CCN(CCO)CCCOc1ccc2c(Nc3cc(CC(=O)Nc4cccc(F)c4)[nH]n3)ncnc2c1 [AZD2811] (first compound max 1 µM, 7x7, partner max 1 µM)
Response: 0.635

Request: Indicate its recorded combination Emax; the compound in question is CC(=O)c1c(C)c2cnc(Nc3ccc(N4CCNCC4)cn3)nc2n(C2CCCC2)c1=O [Palbociclib] + Cn1cnc2c(F)c(Nc3ccc(Br)cc3Cl)c(C(=O)NOCCO)cc21 [Selumetinib] (first compound max 10 µM, 7x7, partner max 10 µM)
Response: 0.253
